Parameter IC50: see the listing below.
assayed-system: recombinant human GST-Syk (Homo sapiens, UniProt P43405)
Construct: purchased Carna Biosciences 08-176
experiment-notes: Homogeneous Time-Resolved Fluorescence (HTRF) assay for the recombinant human Syk enzyme
Format: biochemical
measurement-parameters: ATP 25 μM, 10-dose titration, read-out: rhSYK Activity

For orientation, consider the following solved cases.
compound: COC(=O)c1cn(-c2cc(C)cc(Nc3cc(Cl)ccn3)n2)cn1 [Example 97]
IC50: ≤ 100 nM

compound: Cc1cc(Nc2nccc(C(F)(F)F)n2)cc(-n2cnc(-c3ccc(C(=O)O)cc3)c2)c1 [Example 71]
IC50: ≤ 100 nM

compound: Nc1cc(Nc2cc(C(F)(F)F)ccn2)nc(-n2cnc(C(O)(C3CC3)C3CC3)c2)c1 [Example 84]
IC50: ≤ 100 nM

compound: Cc1cc(Nc2cc(C(F)(F)F)ccn2)nc(-n2cnc(C3(O)CCN(C(N)=O)CC3)c2)c1 [Example 116]
IC50: ≤ 100 nM

compound: Cc1cc(Nc2nccc(C3CC3)n2)cc(-n2cnc(CCC(=O)O)c2)c1 [Example 75]
IC50: ≤ 100 nM

Turning now to a further compound:
GET /values?readout=IC50&item= Cc1cc(Nc2nccc(C(F)(F)F)n2)cc(-n2cnc([C@]3(O)CC[C@@H](C(N)=O)CC3)c2)c1 [Example 34]
≤ 100 nM

###

assayed-system: recombinant human GST-Syk (Homo sapiens)
Construct: purchased Carna Biosciences 08-176
experiment-notes: Homogeneous Time-Resolved Fluorescence (HTRF) assay for the recombinant human Syk enzyme
Type: biochemical
measurement-parameters: ATP 25 μM, 10-dose titration, read-out: rhSYK Activity
pIC50: −log10 of the molar value.
Entries and their measured pIC50 follow.

A selection of reference data follows.
compound: Cc1cc(Nc2nccc(C(F)(F)F)n2)cc(-n2cnc([C@]3(O)CC[C@H](OC(=O)c4ccccc4)CC3)c2)c1 [Example 66]
pIC50: 6.00 to 7.00

compound: Cc1cc(Nc2cc(C(F)(F)F)ccn2)nc(-n2cnc([C@]3(O)CC[C@@H](O)CC3)c2)c1 [Example 62]
pIC50: ≥ 7.00

compound: COC(=O)c1cn(-c2cc(C)cc(Nc3nccc(C(F)(F)F)n3)c2)cn1 [Example 98]
pIC50: ≥ 7.00

With those in mind, consider the next compound.
Request the reported pIC50 associated with Cc1cc(Nc2cc(C(F)(F)F)ccn2)nc(-n2cnc([C@]3(O)CC[C@H](O)CC3)c2)c1 [Example 61]
≥ 7.00

###

assayed-system: recombinant human GST-Syk (Homo sapiens)
Construct: purchased Carna Biosciences 08-176
experiment-notes: Homogeneous Time-Resolved Fluorescence (HTRF) assay for the recombinant human Syk enzyme
Format: biochemical
measurement-parameters: ATP 25 μM, 10-dose titration, read-out: rhSYK Activity
pIC50: −log10 of the molar value.
observation-type: pIC50

# example entries with known answers
compound: Nc1cc(Nc2cc(Cl)ccn2)nc(-n2cnc(C(O)(C3CC3)C3CC3)c2)c1 [Example 79]
assayed-system: recombinant human GST-Syk (Homo sapiens)
observed-measurement: ≥ 7.00
//
compound: Cc1cc(Nc2nccc(C(F)(F)F)n2)cc(-n2cnc(C(C)(C)O)c2)c1 [Example 99]
assayed-system: recombinant human GST-Syk (Homo sapiens)
observed-measurement: ≥ 7.00
//
compound: Cc1cc(Nc2nccc(C(F)(F)F)n2)cc(-n2cc(C(C)(C)O)nc2C)c1 [Example 68]
assayed-system: recombinant human GST-Syk (Homo sapiens)
observed-measurement: 6.00 to 7.00
//
compound: Cc1cc(Nc2nccc(C(F)(F)F)n2)cc(-n2cnc([C@H]3CC[C@H](C(=O)O)CC3)c2)c1 [2 (trans)]
assayed-system: recombinant human GST-Syk (Homo sapiens)
observed-measurement: ≥ 7.00
//
compound: CNC(=O)[C@H]1CC[C@](O)(c2cn(-c3cc(C)cc(Nc4nccc(C(F)(F)F)n4)c3)cn2)CC1 [Example 1]
assayed-system: recombinant human GST-Syk (Homo sapiens)
observed-measurement: ≥ 7.00

Form field: reported pIC50 of Cc1cc(Nc2nccc(C(F)(F)F)n2)cc(-n2cnc([C@]3(O)CC[C@@H](C(=O)N(C)C)CC3)c2)c1 [Example 32]
≥ 7.00

###

Below is a list of entries, each paired with its recorded IC50 value.
assayed-system: recombinant human GST-Syk (Homo sapiens)
Construct: purchased Carna Biosciences 08-176
experiment-notes: Homogeneous Time-Resolved Fluorescence (HTRF) assay for the recombinant human Syk enzyme
Format: biochemical
measurement-parameters: ATP 25 μM, 10-dose titration, read-out: rhSYK Activity

chemical-string: Cc1cc(Nc2cc(C(F)(F)F)ccn2)nc(-n2cnc([C@]3(O)CC[C@@H](C(=O)O)CC3)c2)c1
IC50: ≤ 100 nM
--
chemical-string: Cc1cc(Nc2cc(C(F)(F)F)ccn2)nc(-n2cnc(C(C)(C)O)c2)c1
IC50: ≤ 100 nM

Which IC50 value is on record for Cc1cc(Nc2nccc(C3CC3)n2)cc(-n2cnc([C@]3(O)CC[C@@H](O)CC3)c2)c1 ?
≤ 100 nM

How about Cc1cc(Nc2cc(Cl)ccn2)nc(-n2cnc(C(O)(C3CC3)C3CC3)c2)c1 ?
≤ 100 nM

###

Listed next: entries and their corresponding IC50.
assayed-system: recombinant human GST-Syk (Homo sapiens)
Construct: purchased Carna Biosciences 08-176
experiment-notes: Homogeneous Time-Resolved Fluorescence (HTRF) assay for the recombinant human Syk enzyme
Format: biochemical
measurement-parameters: ATP 25 μM, 10-dose titration, read-out: rhSYK Activity

API: value(readout= IC50, system= recombinant human GST-Syk (Homo sapiens), query= Cc1cc(Nc2nccc(C(F)(F)F)n2)cc(-n2cnc([C@]3(O)CC[C@H](O)[C@@H](C)C3)c2)c1 [Example 54] )
≤ 100 nM

###

assayed-system: recombinant human GST-Syk (Homo sapiens, UniProt P43405)
Construct: purchased Carna Biosciences 08-176
experiment-notes: Homogeneous Time-Resolved Fluorescence (HTRF) assay for the recombinant human Syk enzyme
Type: biochemical
measurement-parameters: ATP 25 μM, 10-dose titration, read-out: rhSYK Activity
Method: Syk inhibition may be determined using the following assay protocol: Homogeneous Time-Resolved Fluorescence (HTRF) Assay for the Recombinant Human Syk Enzyme: A recombinant GST-hSyk fusion protein was used to measure potency of compounds to inhibit human Syk activity. […] The resulting HTRF signal was measured after 30 minutes on an EnVision (Perkin-Elmer) reader using a time-resolved fluorescence protocol. […]
observation-type: IC50

# annotated cases, reported IC50 shown
compound: Cc1cc(Nc2cc(C(C)(C)C)ccn2)nc(-n2cnc([C@]3(O)CC[C@@H](O)CC3)c2)c1 [Example 47]
assayed-system: recombinant human GST-Syk (Homo sapiens, UniProt P43405)
observation-type: IC50
observed-measurement: ≤ 100 nM

compound: CCCCOC(=O)[C@H]1CC[C@H](C(C)(O)c2cn(-c3cc(C)cc(Nc4nccc(C(F)(F)F)n4)c3)cn2)CC1 (relative stereo) [Example 12]
assayed-system: recombinant human GST-Syk (Homo sapiens, UniProt P43405)
observation-type: IC50
observed-measurement: 100 to 1000 nM

compound: Cc1cc(Nc2cc(C3CC3)ccn2)nc(-n2cnc([C@]3(O)CC[C@@H](O)CC3)c2)c1 [Example 45]
assayed-system: recombinant human GST-Syk (Homo sapiens, UniProt P43405)
observation-type: IC50
observed-measurement: ≤ 100 nM

compound: CCOC(=O)C1(C)CC=C(c2cn(-c3cc(C)cc(Nc4nccc(C(F)(F)F)n4)c3)cn2)CC1 (racemic) [Example 19]
assayed-system: recombinant human GST-Syk (Homo sapiens, UniProt P43405)
observation-type: IC50
observed-measurement: 100 to 1000 nM

compound: CC(C)(O)c1cn(-c2cccc(Nc3nccc(C(F)(F)F)n3)c2)cn1 [Example 104]
assayed-system: recombinant human GST-Syk (Homo sapiens, UniProt P43405)
observation-type: IC50
observed-measurement: 100 to 1000 nM

IC50 for O=C(c1cn(-c2cccc(Nc3nccc(C(F)(F)F)n3)c2)cn1)N1CCCC1 [Example 70] ?
100 to 1000 nM

Try this compound next: Cc1cc(Nc2nccc(C(F)(F)F)n2)cc(-n2cnc([C@]3(O)CC[C@H](C(N)=O)CC3)c2)c1 [Example 33]
≤ 100 nM

Repeat with Cc1cc(Nc2cc(C(F)(F)F)ccn2)nc(-n2cnc([C@]3(O)CC[C@@H](CC(=O)O)CC3)c2)c1 [Example 14]
≤ 100 nM

Try the compound OC(c1cn(-c2cccc(Nc3cc(Cl)ccn3)n2)cn1)(C1CC1)C1CC1 [Example 81]
≤ 100 nM

One more compound: Cc1cc(Nc2nccc(C3CC3)n2)cc(-n2cnc(C[C@H](O)C(=O)O)c2)c1 [Example 8]
≤ 100 nM

###

assayed-system: recombinant human GST-Syk (Homo sapiens)
Construct: purchased Carna Biosciences 08-176
experiment-notes: Homogeneous Time-Resolved Fluorescence (HTRF) assay for the recombinant human Syk enzyme
Type: biochemical
measurement-parameters: ATP 25 μM, 10-dose titration, read-out: rhSYK Activity
pIC50: −log10 of the molar value.
observation-type: pIC50

Solved cases below.
compound: Cc1cc(Nc2nccc(C(F)(F)F)n2)cc(-n2cnc(C3(O)CCN(C(N)=O)CC3)c2)c1
pIC50: ≥ 7.00

compound: COC(=O)C[C@H]1CC[C@](O)(c2cn(-c3cc(C)cc(Nc4nccc(C(F)(F)F)n4)c3)cn2)CC1
pIC50: ≥ 7.00

compound: CC(C)(O)c1cn(-c2cccc(Nc3cc(C(F)(F)F)ccn3)n2)cn1
pIC50: ≥ 7.00

compound: Cc1cc(Nc2nccc(C(F)(F)F)n2)cc(-n2cnc(C(C)(C)C#N)c2)c1
pIC50: 6.00 to 7.00

compound: Cc1ccnc(Nc2cc(C)cc(-n3cnc([C@]4(O)CC[C@@H](OC(=O)c5ccccc5)CC4)c3)n2)c1
pIC50: ≥ 7.00

Any idea what pIC50 was measured for OC(c1cn(-c2cccc(Nc3nccc(C(F)(F)F)n3)c2)cn1)(C1CC1)C1CC1 ?
≥ 7.00

Proceed to CC(C)(O)c1cn(-c2cc(Cl)cc(Nc3cc(C(F)(F)F)ccn3)n2)cn1
≥ 7.00

Moving on to the next compound: CC(C)NC(=O)c1cn(-c2cccc(Nc3nccc(C(F)(F)F)n3)c2)cn1
6.00 to 7.00

# iterate: Cc1cc(Nc2nccc(C)n2)cc(-n2cnc(C(C)(O)[C@H]3CC[C@H](C(=O)O)CC3)c2)c1 (relative stereo)
≥ 7.00

// repeat for Cc1cc(Nc2nccc(C(F)(F)F)n2)cc(-n2cnc(C(=O)NC(C)C)c2)c1 and report
6.00 to 7.00
